test: Effect of arylcarboxylic acid on solubility of pyridonecarboxylic acid - 3 (Table 3); format: physicochemical; details: 0.1% aqueous sodium dihydrogenphosphate, pH 8, diclofenac added, pH 8, 0.1% aqueous sodium dihydrogenphosphate, 25° C., one week
ASSAY METRIC: solubility thermodynamic at 168 h (µg/mL)
Dear colleague, please return just the value in µg/mL, with no unit written.

INPUT: Please look up its solubility thermodynamic at 168 h: CCn1cc(C(=O)O)c(=O)c2cc(F)c(N3CCNC(C)C3)c(F)c21 (stereo not shown) [lomefloxacin]
OUTPUT: 1390

###

Exercise: state measured solubility thermodynamic at 168 h for each of the molecules provided.
test: Effect of arylcarboxylic acid on solubility of pyridonecarboxylic acid - 2 (Table 2); format: physicochemical; conditions: 0.1% aqueous sodium dihydrogenphosphate, pH 9, 2-naphthoic acid added, pH 9, 0.1% aqueous sodium dihydrogenphosphate, 25° C., one week
Only the number, expressed in µg/mL, is required.

INPUT: Given the molecule CCn1cc(C(=O)O)c(=O)c2cc(F)c(N3CCNCC3)nc21 [enoxacin] , what is its reported solubility thermodynamic at 168 h?
OUTPUT: 1190

INPUT: Query: solubility thermodynamic at 168 h; subject: CCn1cc(C(=O)O)c(=O)c2cc(F)c(N3CCNCC3)cc21 [norfloxacin]
OUTPUT: 1590

###

experiment: Effect of arylcarboxylic acid on solubility of pyridonecarboxylic acid - 2 (Table 2); assay type: physicochemical; details: 0.1% aqueous sodium dihydrogenphosphate, pH 8, 2-naphthoxyacetic acid added, pH 8, 0.1% aqueous sodium dihydrogenphosphate, 25° C., one week
Field: solubility thermodynamic at 168 h. Provide a value for each of the compounds that follow.
Reply with a number, then the unit it belongs to.

INPUT: Entry under review: CCn1cc(C(=O)O)c(=O)c2cc(F)c(N3CCNCC3)nc21 [enoxacin] . Reported solubility thermodynamic at 168 h?
OUTPUT: 470 µg/mL

INPUT: // lookup solubility thermodynamic at 168 h for CCn1cc(C(=O)O)c(=O)c2cc(F)c(N3CCNCC3)cc21 [norfloxacin]
OUTPUT: 750 µg/mL

###

assay: Effect of arylcarboxylic acid on solubility of pyridonecarboxylic acid - 1 (Table 1); assay type: physicochemical; conditions: 0.1% aqueous sodium dihydrogenphosphate, pH 8, pranoprofen added, pH 8, 0.1% aqueous sodium dihydrogenphosphate, 25° C., one week
Give solubility thermodynamic at 168 h for every item shown.
Quick note: give the figure in µg/mL, leave out the unit.

INPUT: // query solubility thermodynamic at 168 h value for entry `CCn1cc(C(=O)O)c(=O)c2cc(F)c(N3CCNCC3)cc21`
OUTPUT: 810

INPUT: Suppose we examine the molecule `CCn1cc(C(=O)O)c(=O)c2cc(F)c(N3CCNCC3)nc21` ; what solubility thermodynamic at 168 h value has been reported?
OUTPUT: 630

###

test: Effect of arylcarboxylic acid on solubility of pyridonecarboxylic acid - 3 (Table 3); assay type: physicochemical; conditions: 0.1% aqueous sodium dihydrogenphosphate, pH 9, without addition, pH 9, 0.1% aqueous sodium dihydrogenphosphate, 25° C., one week
ASSAY METRIC: solubility thermodynamic at 168 h (mg/mL)
Your answer is read as mg/mL, so omit the unit and give the number.

INPUT: What does the data say about its solubility thermodynamic at 168 h? Entry: CCn1cc(C(=O)O)c(=O)c2cc(F)c(N3CCNC(C)C3)c(F)c21 (stereo not shown) [lomefloxacin]
OUTPUT: 3
